The values you see were collected from patent US7041681B2.

Would you kindly list pKi for each of these compounds?
target: delta opioid receptor (Rattus norvegicus, UniProt P33533); assay: Rat Brain Delta Opioid Receptor Binding Assay; conditions: rat forebrain membranes, ~4 nM [3H]DPDPE, 25° C., 2.5 h; read-out: δ-opioid binding (Ki)
Sequence (P33533 whole entry): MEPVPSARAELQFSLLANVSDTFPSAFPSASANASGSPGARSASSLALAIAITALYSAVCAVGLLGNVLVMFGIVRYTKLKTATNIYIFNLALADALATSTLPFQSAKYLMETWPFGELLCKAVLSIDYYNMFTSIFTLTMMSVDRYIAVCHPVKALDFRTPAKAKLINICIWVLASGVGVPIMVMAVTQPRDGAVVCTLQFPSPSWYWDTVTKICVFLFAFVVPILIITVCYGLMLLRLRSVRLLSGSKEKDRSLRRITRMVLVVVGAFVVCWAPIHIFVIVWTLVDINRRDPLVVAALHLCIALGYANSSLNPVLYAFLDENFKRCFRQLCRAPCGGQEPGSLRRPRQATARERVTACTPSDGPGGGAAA
Give bare numbers, as −log10 of the molar value.

Field: example entries. Status: answers known.
COMPOUND | VAL
CC(N)(Cc1ccc(OCc2ccccc2)cc1)C(=O)N1CCCCC1c1nc(-c2ccccc2)c[nH]1 (stereo not drawn) | 6.20
Cc1cc(O)cc(C)c1C[C@H](N)C(=O)N1CCCC[C@@H]1c1nc(-c2ccccc2)c[nH]1 | 8.27
Cc1cc(C(N)=O)cc(C)c1C[C@H](N)C(=O)N1Cc2ccccc2C[C@H]1c1nc(-c2ccccc2)c[nH]1 | 10.22
COc1ccc(C[C@H](N)C(=O)N2Cc3ccccc3C[C@H]2c2nc(-c3ccccc3)c(C)[nH]2)cc1 | 7.55
Cc1cc(O)cc(C)c1CC(N)C(=O)N1Cc2ccccc2CC1c1nc(-c2ccccc2)c[nH]1 (stereo not drawn) | 10.05
CC(=O)Oc1cc(C)c(CC(N)C(=O)N2Cc3ccccc3CC2c2nc(-c3ccccc3)c[nH]2)c(C)c1 (stereo not drawn) | 9.70
Cc1cc(O)cc(C)c1C[C@H](N)C(=O)N1CCCC[C@H]1c1nc(-c2ccccc2)c(C)[nH]1 | 9.29
N[C@@H](Cc1ccc(Cl)cc1)C(=O)N1Cc2ccccc2C[C@H]1c1nc(-c2ccccc2)c[nH]1 | 5.95

Value sought for every listed compound: pKi.
1. C[C@](N)(Cc1ccc(OCc2ccccc2)cc1)C(=O)N1Cc2ccccc2C[C@H]1c1nc(-c2ccccc2)c[nH]1
2. O=C(C(Cc1ccc(O)cc1)NCc1ccccc1)N1Cc2ccccc2CC1c1nc(-c2ccccc2)c[nH]1 (stereo not drawn)
3. CCN[C@@H](Cc1ccc(O)cc1)C(=O)N1Cc2ccccc2C[C@H]1c1nc(-c2ccccc2)c[nH]1
4. N[C@@H](Cc1cc(F)c(O)c(F)c1)C(=O)N1CCCC[C@H]1c1nc(-c2ccccc2)c[nH]1
5. CCN[C@@H](Cc1ccc(O)cc1)C(=O)N1Cc2ccccc2C[C@@H]1c1nc(-c2ccccc2)c[nH]1

6.46
6.73
8.41
5.25
6.94

Value sought for every listed compound: pKi.
1. Nc1ccc(CC(N)C(=O)N2CCCCC2c2nc(-c3ccccc3)c[nH]2)cc1 (stereo not drawn)
2. N[C@@H](Cc1cccc(O)c1)C(=O)N1CCCC[C@H]1c1nc(-c2ccccc2)c[nH]1

[5.99, 6.36]

* * *

Target: delta opioid receptor (Rattus norvegicus, UniProt P33533)
Experiment: Rat Brain Delta Opioid Receptor Binding Assay
Details: rat forebrain membranes, ~4 nM [3H]DPDPE, 25° C., 2.5 h; read-out: δ-opioid binding (Ki)
Protocol: Male, Wistar rats (150–250 g, VAF, Charles River, Kingston, N.Y.) are killed by cervical dislocation, and their brains removed and placed immediately in ice cold Tris HCl buffer (50 mM, pH 7.4). […] To each sample area 2×40 μl of Betaplate Scint scintillation fluid (LKB) is added and analyzed on a LKB (Wallac) 1205 BetaPlate liquid scintillation counter. […]
pKi: −log10 of the molar value.
Outcome: true (1) for pKi of at least 6; false (0) for anything lower.

SMILES ENTRY | LABEL VALUE
Cc1cc(O)cc(C)c1C[C@H](N)C(=O)N1Cc2ccccc2C[C@H]1c1nc(-c2ccccc2)c(Cl)[nH]1 | true (1)
CN[C@@H](Cc1ccc(O)cc1)C(=O)N1Cc2ccccc2C[C@H]1c1nc(-c2ccccc2)c(C)[nH]1 | true (1)

I'd appreciate it if you could say whether Nc1cc(C[C@H](N)C(=O)N2CCCC[C@H]2c2nc(-c3ccccc3)c[nH]2)ccc1O has pKi at least equal to 6. false (0)

And what about the compound O=C([C@H](Cc1ccc(O)cc1)NCc1ccccc1)N1Cc2ccccc2C[C@@H]1c1nc(-c2ccccc2)c[nH]1 ? false (0)

And what about the compound Cc1[nH]c([C@@H]2Cc3ccccc3CN2C(=O)[C@@H](N)Cc2ccc(C(N)=O)cc2)nc1-c1ccccc1 ? true (1)

And what about the compound N[C@@H](Cc1ccc(O)cc1)C(=O)N1CCCC[C@H]1c1cccc(-c2ccccc2)c1 ? false (0)

* * *

biological target: delta opioid receptor (Rattus norvegicus, UniProt P33533); experiment: Rat Brain Delta Opioid Receptor Binding Assay; conditions: rat forebrain membranes, ~4 nM [3H]DPDPE, 25° C., 2.5 h; read-out: δ-opioid binding (Ki)
Threshold 800 nM. Ki below it: YES. Ki at it or above: NO.

Check out these entries, answers already filled in.
COMPOUND | LABEL VALUE
N#Cc1ccc(C[C@H](N)C(=O)N2CCCC[C@H]2c2nc(-c3ccccc3)c[nH]2)cc1 | YES
N[C@@H](Cc1ccc(C(=O)Nc2ccccc2)cc1)C(=O)N1CCCC[C@H]1c1nc(-c2ccccc2)c[nH]1 | YES
NC(Cc1ccc(C(=O)O)cc1)C(=O)N1Cc2ccccc2CC1c1nc(-c2ccccc2)c[nH]1 (stereo not shown) | NO
CCNC(=O)c1ccc(C[C@H](N)C(=O)N2CCCC[C@H]2c2nc(-c3ccccc3)c[nH]2)cc1 | YES
CC(=O)c1ccc(C[C@H](N)C(=O)N2Cc3ccccc3C[C@H]2c2nc(-c3ccccc3)c[nH]2)cc1 | YES

Dear reviewer, please state whether CN1CCN(C(=O)c2ccc(C[C@H](N)C(=O)N3Cc4ccccc4C[C@H]3c3nc(-c4ccccc4)c[nH]3)cc2)CC1 has Ki strictly beneath 800 nM. NO

And what about the compound N#Cc1ccc(CC(N)C(=O)N2Cc3ccccc3CC2c2nc(-c3ccccc3)c[nH]2)cc1 (stereo not shown) ? YES

* * *

Would you kindly list pKi for each of these molecules?
target: delta opioid receptor (Rattus norvegicus, UniProt P33533); experiment: Rat Brain Delta Opioid Receptor Binding Assay; conditions: rat forebrain membranes, ~4 nM [3H]DPDPE, 25° C., 2.5 h; read-out: δ-opioid binding (Ki)
Numbers only, as −log10 of the molar value.

Field: example entries. Status: answers known.
MOLECULE | TARGET OR TEST SYSTEM | REPORTED METRIC | VAL
CN(C)C(=O)c1ccc(C[C@H](N)C(=O)N2Cc3ccccc3C[C@H]2c2nc(-c3ccccc3)c[nH]2)cc1 | delta opioid receptor (Rattus norvegicus, UniProt P33533) | pKi | 6.24
CC(=O)Nc1ccc(C[C@H](N)C(=O)N2Cc3ccccc3C[C@H]2c2nc(-c3ccccc3)c(C)[nH]2)cc1 | delta opioid receptor (Rattus norvegicus, UniProt P33533) | pKi | 7.47

Value sought for every listed molecule: pKi.
1. Cc1cc(O)cc(C)c1C[C@H](N)C(=O)N1Cc2ccccc2C[C@H]1c1nc(-c2ccccc2)c(Br)[nH]1
2. CC(N)(Cc1ccc(O)cc1)C(=O)N1Cc2ccccc2CC1c1nc(-c2ccccc2)c[nH]1 (stereo not shown)
3. Cc1[nH]c([C@@H]2Cc3ccccc3CN2C(=O)[C@@H](N)Cc2ccc(N)cc2)nc1-c1ccccc1
4. CC(=O)c1ccc(C[C@H](N)C(=O)N2CCCC[C@H]2c2nc(-c3ccccc3)c[nH]2)cc1
5. N[C@@H](Cc1cc(F)c(O)c(F)c1)C(=O)N1Cc2ccccc2C[C@H]1c1nc(-c2ccccc2)c[nH]1

1: 10.00; 2: 8.88; 3: 7.03; 4: 6.03; 5: 7.90

* * *

Would you kindly list pKi for each of these molecules?
biological target: delta opioid receptor (Rattus norvegicus); assay: Rat Brain Delta Opioid Receptor Binding Assay; conditions: rat forebrain membranes, ~4 nM [3H]DPDPE, 25° C., 2.5 h; read-out: δ-opioid binding (Ki)
Answers are plain numbers, as −log10 of the molar value.

MOLECULE | pKi
CN1CCN(C(=O)c2ccc(C[C@H](N)C(=O)N3CCCC[C@H]3c3nc(-c4ccccc4)c[nH]3)cc2)CC1 | 5.00

Value sought for every listed molecule: pKi.
1. N[C@@H](Cc1cccc(O)c1)C(=O)N1Cc2ccccc2C[C@H]1c1nc(-c2ccccc2)c[nH]1
2. CNC(Cc1ccc(O)cc1)C(=O)N1Cc2ccccc2CC1c1nc(-c2ccccc2)c(C)[nH]1 (stereo not shown)

[6.88, 9.36]

Fill blank: measured pKi of the molecule Cc1cc(OC(=O)C(C)(C)C)cc(C)c1C[C@H](N)C(=O)N1Cc2ccccc2C[C@H]1c1nc(-c2ccccc2)c[nH]1 is ____. 8.46

* * *

target: delta opioid receptor (Rattus norvegicus); assay: Rat Brain Delta Opioid Receptor Binding Assay; conditions: rat forebrain membranes, ~4 nM [3H]DPDPE, 25° C., 2.5 h; read-out: δ-opioid binding (Ki)
REPORTED METRIC: pKi
Give bare numbers, as −log10 of the molar value.

COMPOUND | REPORTED METRIC | VAL
N[C@@H](Cc1ccc(O)cc1)C(=O)N1CCCC[C@@H]1c1cccc(-c2ccccc2)c1 | pKi | 5.00

Value sought for every listed compound: pKi.
1. CC(C)NC(Cc1ccc(O)cc1)C(=O)N1Cc2ccccc2CC1c1nc(-c2ccccc2)c[nH]1 (stereo not shown)
2. CN[C@@H](Cc1c(C)cc(O)cc1C)C(=O)N1Cc2ccccc2C[C@H]1c1nc(-c2ccccc2)c[nH]1
3. Cc1[nH]c([C@@H]2Cc3ccccc3CN2C(=O)[C@@H](N)Cc2ccc([N+](=O)[O-])cc2)nc1-c1ccccc1

6.40
9.40
6.17
